Recorded Binding of serum 1b to linear peptides of protein N of SARS-CoV Urbani, one value per entry.
- Tested on: antibodies in sera from SARS patients (sera 1a, 1b, 2, 6, 37, 62, London, SARS-yellow, SARS-green)
- Assay type: binding, human
Just the number.

MSDNGPQSNQRSAPR    0.1
IRQGTDYKHWPQIAQ    0.1
GKEELRFPRGQGVPI    0.1
VILLNKHIDAYKTFP    0.1

Q: Which measured Binding of serum 1b to linear peptides of protein N of SARS-CoV Urbani value corresponds to QGVPINTNSGPDDQI ?
A: 0.2

---

- Tested on: antibodies in sera from SARS patients (sera 1a, 1b, 2, 6, 37, 62, London, SARS-yellow, SARS-green)
- Assay type: binding, human
- Parameters: unit not given here
Result type: Binding of serum 6 to looped/cyclic peptides of protein M of SARS-CoV Urbani
Output: the number by itself.

Here's what some known entries look like.
NRYRIGNYKLNTDHA    0.7
FARTRSMWSFNPETN    0.7

Q: Consider the sequence RSMWSFNPETNILLN and give its measured Binding of serum 6 to looped/cyclic peptides of protein M of SARS-CoV Urbani.
A: 0.7

---

- Test system: antibodies in sera from SARS patients (sera 1a, 1b, 2, 6, 37, 62, London, SARS-yellow, SARS-green)
- Assay type: binding, human
Measured Binding of serum London to looped/cyclic peptides of protein M of SARS-CoV Urbani by item
Lab note: jot down the number only; don't add units.

Q: Param item = SGFAAYNRYRIGNYK ; retrieve measured Binding of serum London to looped/cyclic peptides of protein M of SARS-CoV Urbani.
A: 0.3

---

- System: antibodies in sera from SARS patients (sera 1a, 1b, 2, 6, 37, 62, London, SARS-yellow, SARS-green)
- Format: binding, human
// assign 1 (yes) if Binding of serum SARS-yellow to linear peptides of protein N of SARS-CoV Urbani falls strictly below 0.6, else 0 (no) (ties count as 0 (no))

QKKQPTVTLLPAADM    1 (yes)

Q: Binding of serum SARS-yellow to linear peptides of protein N of SARS-CoV Urbani strictly < 0.6 for this sequence? TDNNQNGGRNGARPK
A: 0 (no)

Q: Follow-up entry: FFGMSRIGMEVTPSG
A: 0 (no)

Q: Item: NTNSGPDDQIGYYRR
A: 0 (no)

Q: One more sequence: QSNQRSAPRITFGGP
A: 1 (yes)

Q: Thanks! And KHWPQIAQFAPSASA ?
A: 0 (no)

Q: Try LPQRQKKQPTVTLLP next.
A: 0 (no)

---

- Tested on: control sera (pooled serum of ten healthy LUMC hospital workers; commercial negative donor pooled serum from the Dutch bloodbank)
- Assay type: binding, human
- Set-up: unit not given here
Rule: Binding of Control serum LUMC to linear peptides under 0.6 gives N, otherwise Y.

Sample answers from the record:
NNNAATVLQLPQGTT    Y
GANKEGIVWVATEGA    N
RVRGGDGKMKELSPR    Y

Q: Reported Binding of Control serum LUMC to linear peptides at or above 0.6? LVVILRIGTQVLKTM
A: Y

Q: What do we get for TLVLKMLHSSSLTSL ?
A: N

Q: Repeat for the following sequence: LHKLLQTLVLKMLHS
A: N

Q: What do you get for VKDYVVVHGYFTEVY ?
A: N

Q: Also need VKDPPNVQIHTIDGS , thanks.
A: N

Q: Next record, please: RARSVSPKLFIRQEE
A: N

Q: Repeat with IVWVATEGALNTPKD
A: Y

Q: Similarly, MKIILFLTLIVFTSC ?
A: N

Q: Repeat with LYMAISPKFTTSLSL
A: N

Q: Do the same for ITTDTGIENATFFIF please
A: Y

Q: Similarly, KGFQFICNLLLLFVT ?
A: Y

Q: Param item: NAATVLQLPQGTTLP
A: N

Q: TMTTVYHITVSQIQL , same question.
A: Y
